Test system: HMPV clinical isolate TN/1501/A1
assay-text: HMPV antiviral assay Method-B (clinical isolate TN/1501/A1 in LLC-MK2 cells, ATP-Lite readout)
Assay type: cell-based, Human metapneumovirus (HMPV)
condition-description: human metapneumovirus, LLC-MK2, 144 h, hMPV WT1501 (clinical isolate TN/1501/A1), 6 days
value-type: EC50

| smiles-representation | target-of-assay | value-type | data-value |
| --- | --- | --- | --- |
| COc1cc(C(=O)NC[C@](O)(c2cc3c(c(-c4ccc(F)cc4)n2)OC[C@]3(C)C(N)=O)C2CC2)cc2cc(C)nnc12 | HMPV clinical isolate TN/1501/A1 | EC50 | < 500 nM |
| COc1cc(C(=O)NC[C@](O)(c2cc3c(c(-c4ccc(C#N)c(Cl)c4)n2)OC[C@]3(C)C(N)=O)C(F)(F)F)cc2cc(Cl)c(C)nc12 | HMPV clinical isolate TN/1501/A1 | EC50 | > 500 nM |
| COc1cc(C(=O)NC[C@](O)(c2cc3c(c(-c4ccc5c(c4)OC(F)(F)O5)n2)OC[C@]3(C)C(N)=O)C2CC2)cc2cc(Br)cnc12 | HMPV clinical isolate TN/1501/A1 | EC50 | < 500 nM |
| Cc1nc2c(OC3CC3)cc(C(=O)NC[C@](O)(c3cc4c(c(-c5csc6c(F)cccc56)n3)OC[C@]4(C)C(N)=O)C(F)(F)F)cc2cc1Cl | HMPV clinical isolate TN/1501/A1 | EC50 | > 500 nM |
| COc1cc(C(=O)NC[C@](O)(c2cc3c(c(-c4ccc(OC(F)F)c(F)c4)n2)OC[C@]3(C)C(N)=O)C(F)(F)F)cc2cn(C3CC3)nc12 | HMPV clinical isolate TN/1501/A1 | EC50 | < 500 nM |
| C[C@]1(C(N)=O)COc2c1cc([C@@](O)(CNC(=O)c1cc(Cl)c3nn(C4CC4)cc3c1)C1CC1)nc2-c1cc(Br)c(F)cc1F | HMPV clinical isolate TN/1501/A1 | EC50 | < 500 nM |

----------
Test system: HMPV clinical isolate TN/1501/A1
assay-text: HMPV antiviral assay Method-B (clinical isolate TN/1501/A1 in LLC-MK2 cells, ATP-Lite readout)
Type: cell-based, Human metapneumovirus (HMPV)
condition-description: human metapneumovirus, LLC-MK2, 144 h, hMPV WT1501 (clinical isolate TN/1501/A1), 6 days
// values below are reported EC50

| compound | EC50 |
| --- | --- |
| CC[C@](O)(CNC(=O)c1cc(OC)c2nn(C3CC3)cc2c1)c1cc2c(c(-c3ccc(F)cc3)n1)OC[C@]2(C)C(N)=O [Example 642] | > 500 nM |
| COc1cc(C(=O)NC[C@](O)(c2cc3c(c(-c4ccc(F)cc4)n2)OC[C@]3(C)C(N)=O)C(F)(F)F)cc2cn(C(F)(F)F)nc12 [Example 1068] | < 500 nM |
| C[C@]1(C(N)=O)COc2c1cc([C@@](O)(CNC(=O)c1cc(OCCF)c3nn(C4(F)CC4)cc3c1)C(F)(F)F)nc2-c1cc(Cl)c(F)cc1F [Example 618] | < 500 nM |
| COc1cc(C(=O)NC[C@](O)(c2cc3c(c(-c4ccc5c(c4)OC(F)(F)O5)n2)OC[C@]3(C)C(N)=O)C2CC2)cn2cc(C3CC3)nc12 [Example 828] | < 500 nM |
| COc1cc(C(=O)NC[C@](O)(c2cc3c(c(-c4cnc(Cl)c(Cl)c4)n2)OC[C@]3(C)C(N)=O)C(F)(F)F)cc2cc(Cl)c(C)nc12 [Example 588] | > 500 nM |
| COc1cc(C(=O)NC[C@](O)(c2cc3c(c(-c4cc(Cl)ccc4F)n2)OC[C@]3(C)C(N)=O)C2CC2)cc2cc(Br)c(C)nc12 [Example 1189] | < 500 nM |

Where do these numbers come from? They come from patent US12612412B2.
